B1: MYOZ1 (parent)
chain: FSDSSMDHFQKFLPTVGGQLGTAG

Variants of: B1
Assay: protein stability index of a GFP-peptide fusion (GPS, HEK-293T) (PSI 1-6); higher = more stable;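 note: lentivirally expressed fusions sorted by FACS into six bins by GFP to DsRed ratio, PSI derived from sequencing read proportions per bin multiplied by bin number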
Conditions: c terminus: a fixed tail appended
Readout Name: protein stability index

Examples with answers:
1) F1L :: 3.11
2) M6K :: 3.08

Quick one: give me protein stability index for each item below, same order please.
1. Q10P
2. L13V
3. F9C
4. L13A

Key:
3.23
2.97
2.92
2.52
